Where these numbers come from: patent US20200079833A1

# assay_target: GLP-1 receptor (GLP-1R) (human, UniProt P43220 24-463)
# method: cell-based or functional assay
Starred links: 1 amine or outer side, 2 acyl side, 3 side chain; linkers in the order of their positions; H or OH if unused. Non-standard residues stand in square brackets, D forms with d. Groups on a side chain read outwards from the residue. Primed or numbered codes have the meaning given here. No end group written: not given here. *: point of attachment. Dodecanoyl(12-OPh(4-COOH)) = O=C(O)c1ccc(OCCCCCCCCCCCC(=O)*)cc1; γGlu = O=C(O)[C@H](CCC(=O)[*:2])N[*:1]; Stearoyl = CCCCCCCCCCCCCCCCCC(=O)*; αMeF = C[C@](N)(Cc1ccccc1)C(=O)O; αMeK = C[C@](N)(CCCCN)C(=O)O; αMeS = C[C@](N)(CO)C(=O)O; PEG2′ = not defined here; Aib = CC(C)(N)C(=O)O
observed_property: cAMP Primary assay EC50 GLP-1R n2 (nM)

# binder, observed_property, value_observed
records = [
    ("H[Aib]EGS[αMeF]TSDV[αMeS]S[αMeF]LEGEAAK([PEG2′-PEG2′-PEG2′-Dodecanoyl(12-OPh(4-COOH))])E[αMeF]IA[αMeF]VV[αMeK]GG-NH2 [SEQ ID NO 145]", "cAMP Primary assay EC50 GLP-1R n2", 0.015),
]

P. H[Aib]EGS[αMeF]TSDV[αMeS]S[αMeF]LEK([PEG2′-PEG2′-γGlu-Stearoyl])EAA[αMeK]E[αMeF]IA[αMeF]VV[αMeK]GG-NH2 [SEQ ID NO 113]
Q. H[Aib]EGS[αMeF]TSDV[αMeS]S[αMeF]LEGEAAK([PEG2′-PEG2′-Dodecanoyl(12-OPh(4-COOH))])E[αMeF]IA[αMeF]VV[αMeK]GG-NH2 [SEQ ID NO 144]
R. H[Aib]EGS[αMeF]TSDV[αMeS]S[αMeF]LEGK([PEG2′-PEG2′-γGlu-Stearoyl])AA[αMeK]E[αMeF]IA[αMeF]VV[αMeK]GG-NH2 [SEQ ID NO 112]
Input: Give the ascending ranking of the items by reported cAMP Primary assay EC50 GLP-1R n2. List labels; respect the requested ordering.
Output: R, Q, P
(R: 0.00507 nM, Q: 0.0096 nM, P: 0.0174 nM)
